ASSAY TARGET: T1, FZD4 CRD (Homo sapiens, UniProt Q9ULV1)
T1 construct: E42-V167; GPI anchor signal (C); expressed in transfected cells; host or cells: CHO cells, lentiviral pLenti-puro
T1 sequence (Q9ULV1 42-167): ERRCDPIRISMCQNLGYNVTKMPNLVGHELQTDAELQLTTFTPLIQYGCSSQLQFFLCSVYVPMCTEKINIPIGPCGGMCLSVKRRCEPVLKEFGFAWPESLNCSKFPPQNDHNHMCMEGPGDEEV
ASSAY REMARKS: Immunofluorescence of anti-FZD5 Fab binding to CHO cells overexpressing Frizzled CRD
Set-up: key: −: no binding; +: very weak binder; ++: weak binder; +++: good binder; ++++: very good binder
MEASUREMENT TYPE: Immunofluorescence binding, Frizzled CRD overexpressed on CHO cells: FZD4

Look at this molecule and give its reported Immunofluorescence binding, Frizzled CRD overexpressed on CHO cells: FZD4. Fab-2916: anti-FZD5 Fab with antibody variable region Fv-2916; CDR SEQ ID NOs: 35, 36, 55, 94, 131, 167 (antibody, V domains shown) VH: EVQLVESGGGLVQPGGSLRLSCAASGFNISYSSIHWVRQAPGKGLEWVASIYPSYSYTYYADSVKGRFTISADTSKNTAYLQMNSLRAEDTAVYYCARYGYYGMDYWGQGTLVTVSS VL: DIQMTQSPSSLSASVGDRVTITCRASQSVSSAVAWYQQKPGKAPKLLIYSASSLYSGVPSRFSGSRSGTDFTLTISSLQPEDFATYYCQQWYHYPYLITFGQGTKVEIK
−

Look at this molecule and give its reported Immunofluorescence binding, Frizzled CRD overexpressed on CHO cells: FZD4. Fab-2926: anti-FZD5 Fab with antibody variable region Fv-2926; CDR SEQ ID NOs: 35, 36, 65, 103, 141, 173 (antibody, V domains shown) VH: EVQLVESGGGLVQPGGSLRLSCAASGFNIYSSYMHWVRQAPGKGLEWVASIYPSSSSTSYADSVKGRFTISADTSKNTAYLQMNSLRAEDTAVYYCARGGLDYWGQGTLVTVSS VL: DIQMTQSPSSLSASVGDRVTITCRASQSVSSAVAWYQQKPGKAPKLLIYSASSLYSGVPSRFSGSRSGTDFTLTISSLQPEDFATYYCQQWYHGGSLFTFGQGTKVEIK
−

From: patent US20210253718A1
